Reported IC50 is given for each of the following compounds.
System: TE-10;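 also: growth inhibition of TE-10 cells, measured by a cell viability assay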
Experiment: cells
Type: functional, cell-based
Settings: Homo sapiens
Description: SANGER: Inhibition of human TE-10 cell growth in a cell viability assay.
# output: bare number, implied unit nM

- compound: "Fc1cc(-c2cc[nH]/c(=N/c3ccc(-n4cnc(N5CCOCC5)n4)cc3)n2)cc(N2CCOCC2)c1"
  numeric result: 305

Q. Which IC50 reading was recorded for the compound Cc1n[nH]c2ccc(-c3cncc(OC[C@@H](N)Cc4c[nH]c5ccccc45)c3)cc12 [A-443654] ?
A. 89.4

---

Tested on: A101D;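 also: growth inhibition of the cell line, measured with a viability assay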
Test: cells
Type: functional, cell-based
Conditions: Homo sapiens
Description: SANGER: Inhibition of human A101D cell growth in a cell viability assay.
Reported IC50 is given for each of the following compounds.
# output: bare number, implied unit nM

Q. Which IC50 reading was recorded for the compound "CO[C@@]12[C@H](COC(N)=O)C3=C(C(=O)C(C)=C(N)C3=O)N1C[C@@H]1N[C@@H]12" ?
A. 257

Q. Which IC50 reading was recorded for the compound "Cn1c(=O)n(-c2ccc(C(C)(C)C#N)cc2)c2c3cc(-c4cnc5ccccc5c4)ccc3ncc21" ?
A. 39

Q. Which IC50 reading was recorded for the compound "COc1cc(Nc2c(C#N)cnc3cc(OCCCN4CCN(C)CC4)c(OC)cc23)c(Cl)cc1Cl" ?
A. 1940

---

Test system: RPMI-8226
Assay: cells
Assay type: functional, cell-based
Conditions: Homo sapiens
Description: SANGER: Inhibition of human RPMI-8226 cell growth in a cell viability assay.
measured endpoint: pIC50
pIC50 here: minus log base 10 of the concentration, concentration in moles per litre.

Q. Which pIC50 reading was recorded for the molecule "C/C=C(/C)C(=O)O[C@H]1C(C)=C2[C@H]([C@@H]1OC(=O)CCCCCCC)[C@@](C)(OC(C)=O)C[C@H](OC(=O)CCC)[C@@]1(O)[C@H]2OC(=O)[C@@]1(C)O" ?
A. 7.83

Q. Which pIC50 reading was recorded for the molecule "CC(=O)c1c(C)c2cnc(Nc3ccc(N4CCNCC4)cn3)nc2n(C2CCCC2)c1=O" ?
A. 6.28

---

Test system: TT
Test: cells
Assay type: functional, cell-based
Details: Homo sapiens
Description: SANGER: Inhibition of human TT cell growth in a cell viability assay.
measured endpoint: pIC50
pIC50 here: minus log base 10 of the concentration, concentration in moles per litre.

Q. Which pIC50 reading was recorded for the compound "C/C=C(/C)C(=O)O[C@H]1C(C)=C2[C@H]([C@@H]1OC(=O)CCCCCCC)[C@@](C)(OC(C)=O)C[C@H](OC(=O)CCC)[C@@]1(O)[C@H]2OC(=O)[C@@]1(C)O" ?
A. 6.66

---

Reported pIC50 is given for each of the following compounds.
Test system: MOLT-13;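 also: IC50 for suppression of MOLT-13 cell growth, read out with a cell viability assay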
Assay: cells
Type: functional, cell-based
Conditions: Homo sapiens
Description: SANGER: Inhibition of human MOLT-13 cell growth in a cell viability assay.
pIC50: −log10 of the molar value.

Q. Which pIC50 reading was recorded for the compound "Cn1cc(/C=C2\C(=O)Nc3cccnc32)c2ccccc21" ?
A. < 5.70

Q. Which pIC50 reading was recorded for the compound "C[C@]1(c2nc3c(C(N)=O)cccc3[nH]2)CCCN1" ?
A. < 5.30

Q. Which pIC50 reading was recorded for the compound "COc1cc(Nc2c(C#N)cnc3cc(OCCCN4CCN(C)CC4)c(OC)cc23)c(Cl)cc1Cl" ?
A. < 5.70

Q. Which pIC50 reading was recorded for the compound COc1cc(C)c(Sc2cnc(NC(=O)c3ccc(CNC(C)C(C)(C)C)cc3)s2)cc1C(=O)N1CCN(C(C)=O)CC1 (centres undefined) ?
A. < 4.99

---

System: KP-N-YS;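 also: cell viability assay measuring inhibition of cell line growth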
Experiment: cells
Assay type: functional, cell-based
Settings: Homo sapiens
Description: SANGER: Inhibition of human KP-N-YS cell growth in a cell viability assay.
measured endpoint: IC50 (nM)
# output: bare number, implied unit nM

Q. Which IC50 reading was recorded for the molecule "C/C=C(/C)C(=O)O[C@H]1C(C)=C2[C@H]([C@@H]1OC(=O)CCCCCCC)[C@@](C)(OC(C)=O)C[C@H](OC(=O)CCC)[C@@]1(O)[C@H]2OC(=O)[C@@]1(C)O" ?
A. 8.06
